Species on record: Rattus norvegicus
protocol-description: Antiovulatory activity expressed as the percentage of rats blocked at 50 ug
Type: functional
experimental-endpoint: Rats blocked

>>> result("CC(=O)N[C@H](Cc1ccc2ccccc2c1)C(=O)N[C@H](Cc1ccccc1)C(=O)N[C@H](Cc1ccccc1)C(=O)N[C@@H](CO)C(=O)N[C@@H](Cc1ccc(O)cc1)C(=O)N[C@H](CCCN=C(N)N)C(=O)N[C@H](CN[C@@H](CCCN=C(N)N)C(=O)N1CCC[C@H]1C(=O)N[C@H](C)C(=O)O)Cc1ccccc1")
"0%"

====

Species on record: Rattus norvegicus
protocol-description: Antiovulatory activity expressed as the percentage of rats blocked at 50 ug
Type: functional
experimental-endpoint: Rats blocked (%)

>>> quantitative_result("CC(=O)N[C@H](Cc1ccc2ccccc2c1)C(=O)N[C@H](Cc1ccccc1)C(=O)N[C@H](CN[C@@H](CO)C(=O)N[C@@H](Cc1ccc(O)cc1)C(=O)N[C@H](CCCN=C(N)N)C(=O)N[C@@H](Cc1ccccc1)C(=O)N[C@@H](CCCN=C(N)N)C(=O)N1CCC[C@H]1C(=O)N[C@H](C)C(=O)O)Cc1ccccc1")
0
>>> quantitative_result("CC(=O)N[C@H](Cc1ccc2ccccc2c1)C(=O)N[C@H](Cc1ccccc1)C(=O)N[C@H](Cc1ccccc1)C(=O)N[C@@H](CO)C(=O)N[C@@H](Cc1ccc(O)cc1)C(=O)N[C@@H](CCCCN)CN[C@@H](Cc1ccccc1)C(=O)N[C@@H](CCCN=C(N)N)C(=O)N1CCC[C@H]1C(=O)N[C@H](C)C(=O)O")
60
>>> quantitative_result("CC(=O)N[C@H](Cc1ccc2ccccc2c1)C(=O)N[C@H](Cc1ccccc1)C(=O)N[C@H](Cc1ccccc1)C(=O)N[C@@H](CO)C(=O)N[C@@H](Cc1ccc(O)cc1)C(=O)N[C@@H](CCCCN)CN(C(C)=O)[C@@H](Cc1ccccc1)C(=O)N[C@@H](CCCN=C(N)N)C(=O)N1CCC[C@H]1C(=O)N[C@H](C)C(=O)O")
33
>>> quantitative_result("CC(=O)N[C@H](Cc1ccc2ccccc2c1)C(=O)N[C@H](CN[C@H](Cc1ccccc1)C(=O)N[C@@H](CO)C(=O)N[C@@H](Cc1ccc(O)cc1)C(=O)N[C@H](CCCN=C(N)N)C(=O)N[C@@H](Cc1ccccc1)C(=O)N[C@@H](CCCN=C(N)N)C(=O)N1CCC[C@H]1C(=O)N[C@H](C)C(=O)O)Cc1ccccc1")
0
>>> quantitative_result("CC(=O)N[C@H](Cc1ccc2ccccc2c1)C(=O)N[C@H](Cc1ccccc1)C(=O)N[C@H](Cc1ccccc1)C(=O)N[C@@H](CO)C(=O)N[C@@H](Cc1ccc(O)cc1)CN(C(C)=O)[C@H](CCCN=C(N)N)C(=O)N[C@@H](Cc1ccccc1)C(=O)N[C@@H](CCCN=C(N)N)C(=O)N1CCC[C@H]1C(=O)N[C@H](C)C(=O)O")
0
>>> quantitative_result("CC(=O)N[C@H](CN[C@H](Cc1ccccc1)C(=O)N[C@H](Cc1ccccc1)C(=O)N[C@@H](CO)C(=O)N[C@@H](Cc1ccc(O)cc1)C(=O)N[C@H](CCCN=C(N)N)C(=O)N[C@@H](Cc1ccccc1)C(=O)N[C@@H](CCCN=C(N)N)C(=O)N1CCC[C@H]1C(=O)N[C@H](C)C(=O)O)Cc1ccc2ccccc2c1")
0
>>> quantitative_result("CC(=O)N[C@H](Cc1ccc2ccccc2c1)C(=O)N[C@H](Cc1ccccc1)C(=O)N[C@H](Cc1ccccc1)C(=O)N[C@@H](CO)C(=O)N[C@@H](Cc1ccc(O)cc1)C(=O)N[C@H](CCCN=C(N)N)C(=O)N[C@@H](Cc1ccccc1)C(=O)N[C@@H](CCCN=C(N)N)C(=O)N1CCC[C@@H]1CN(C(C)=O)[C@H](C)C(=O)O")
100
>>> quantitative_result("CC(=O)N[C@H](Cc1ccc2ccccc2c1)C(=O)N[C@H](Cc1ccccc1)C(=O)N[C@H](Cc1ccccc1)C(=O)N[C@@H](CO)CN(C(C)=O)[C@@H](Cc1ccc(O)cc1)C(=O)N[C@H](CCCN=C(N)N)C(=O)N[C@@H](Cc1ccccc1)C(=O)N[C@@H](CCCN=C(N)N)C(=O)N1CCC[C@H]1C(=O)N[C@H](C)C(=O)O")
0
